The reported numbers originate from ChEMBL document CHEMBL1961873.

# tested.on: Serine/threonine-protein kinase Chk1 (Homo sapiens)
# Sequence (whole entry): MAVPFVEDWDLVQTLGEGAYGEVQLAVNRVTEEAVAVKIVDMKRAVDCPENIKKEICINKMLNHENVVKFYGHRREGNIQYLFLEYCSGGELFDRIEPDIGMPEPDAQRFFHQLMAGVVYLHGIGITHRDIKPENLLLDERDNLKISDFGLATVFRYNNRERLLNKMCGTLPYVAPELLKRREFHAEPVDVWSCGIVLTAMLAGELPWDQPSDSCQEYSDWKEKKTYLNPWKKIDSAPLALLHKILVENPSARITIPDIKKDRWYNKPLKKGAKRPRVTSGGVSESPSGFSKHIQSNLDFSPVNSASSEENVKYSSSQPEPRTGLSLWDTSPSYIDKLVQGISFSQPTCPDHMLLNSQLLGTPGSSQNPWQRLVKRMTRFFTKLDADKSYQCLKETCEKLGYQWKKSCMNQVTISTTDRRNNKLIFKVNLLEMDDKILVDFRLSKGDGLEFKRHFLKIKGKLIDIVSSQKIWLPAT
# measurement.setup: at 1 µM
property: inhibition
Express your answer as a number followed by its unit.

Take a look at these entries with their results.
[
  {
    "compound": "CC1=C(C(=O)Nc2ccc3[nH]ncc3c2)C(c2ccc(F)cc2)NC(=O)N1 (stereo not given)",
    "inhibition": "4.3%"
  },
  {
    "compound": "CS(=O)(=O)Nc1ccc(N/C=C2\\C(=O)Nc3ccccc32)cc1",
    "inhibition": "5.75%"
  },
  {
    "compound": "COc1ccc2cc(-c3c(-c4ccncc4)nc(-c4ccc([S+](C)[O-])cc4)n3C)ccc2c1 (stereo not given)",
    "inhibition": "4.03%"
  },
  {
    "compound": "COc1cc2ncn(-c3cc(O[C@@H](C)c4ccccc4Cl)c(C(N)=O)s3)c2cc1OC",
    "inhibition": "11.3%"
  }
]

As a next step, examine the compound that follows.
Fill in the blank: the reported inhibition of COC(=O)Nc1nc2cc(Oc3ccc(NC(=O)Nc4cccc(C(=O)O)c4)cc3)ccc2[nH]1 is ____.
-0.43%

----------
# tested.on: Serine/threonine-protein kinase BRSK1 (Homo sapiens) (UniProt Q8TDC3)
# Sequence (Q8TDC3 whole entry): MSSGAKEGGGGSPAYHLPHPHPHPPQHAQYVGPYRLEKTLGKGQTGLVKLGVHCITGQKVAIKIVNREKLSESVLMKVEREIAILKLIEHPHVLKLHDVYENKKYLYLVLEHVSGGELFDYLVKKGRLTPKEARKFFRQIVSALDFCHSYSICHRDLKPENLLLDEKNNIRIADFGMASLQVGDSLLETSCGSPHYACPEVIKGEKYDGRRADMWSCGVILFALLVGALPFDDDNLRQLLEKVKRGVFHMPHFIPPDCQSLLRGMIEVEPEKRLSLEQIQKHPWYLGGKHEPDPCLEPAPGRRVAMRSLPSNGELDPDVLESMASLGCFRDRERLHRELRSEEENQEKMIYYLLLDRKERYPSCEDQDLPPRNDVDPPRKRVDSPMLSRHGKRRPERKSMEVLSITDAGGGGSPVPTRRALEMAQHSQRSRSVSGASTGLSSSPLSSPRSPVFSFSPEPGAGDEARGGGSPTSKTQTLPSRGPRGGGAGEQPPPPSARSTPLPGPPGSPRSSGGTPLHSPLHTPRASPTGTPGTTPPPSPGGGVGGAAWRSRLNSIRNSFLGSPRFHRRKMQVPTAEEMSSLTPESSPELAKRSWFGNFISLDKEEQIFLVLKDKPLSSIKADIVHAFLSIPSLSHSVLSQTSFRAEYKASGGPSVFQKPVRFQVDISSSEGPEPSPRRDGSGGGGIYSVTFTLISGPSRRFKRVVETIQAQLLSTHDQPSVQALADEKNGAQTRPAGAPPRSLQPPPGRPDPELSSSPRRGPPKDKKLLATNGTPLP
# measurement.setup: at 0.1 µM
# Description: GSK_PKIS: BRSK1 mean inhibition at 0.1 uM [Nanosyn]
inhibition: recorded values
Dear colleague, please return just the value in %, with no unit written.

[
  {
    "molecule": "NCc1ccc(-c2nc(-c3ccc(Cl)c(O)c3)c(-c3ccncc3)[nH]2)cc1",
    "tested.on": "Serine/threonine-protein kinase BRSK1 (Homo sapiens) (UniProt Q8TDC3)",
    "inhibition / %": 0.1
  },
  {
    "molecule": "CCn1c(-c2nonc2N)nc2c(C#CC(C)(C)O)nc(OC[C@@H](N)c3ccccc3)cc21",
    "tested.on": "Serine/threonine-protein kinase BRSK1 (Homo sapiens) (UniProt Q8TDC3)",
    "inhibition / %": 0.41
  },
  {
    "molecule": "CCn1c(-c2nonc2N)nc2cncc(C(=O)N3CC[C@H](N)C3)c21",
    "tested.on": "Serine/threonine-protein kinase BRSK1 (Homo sapiens) (UniProt Q8TDC3)",
    "inhibition / %": 1.37
  },
  {
    "molecule": "CC(=O)Nc1cccc(C#Cc2cncnc2Nc2ccc(OCc3cccc(F)c3)c(Cl)c2)n1",
    "tested.on": "Serine/threonine-protein kinase BRSK1 (Homo sapiens) (UniProt Q8TDC3)",
    "inhibition / %": -1.43
  },
  {
    "molecule": "COc1ccc(-c2nn3ncccc3c2-c2ccnc(Nc3ccc(Cl)c(C(F)(F)F)c3)n2)cc1",
    "tested.on": "Serine/threonine-protein kinase BRSK1 (Homo sapiens) (UniProt Q8TDC3)",
    "inhibition / %": 1.4
  }
]

Please look up its inhibition: CCCN1CCC(Oc2cc(Nc3nc(Nc4cccc(F)c4C(N)=O)c4cc[nH]c4n3)c(OC)cc2Cl)CC1
0.4

Same question, COC(=O)Nc1nc2cc(Oc3cccc(NC(=O)Nc4cc(C(F)(F)F)ccc4F)c3)ccc2[nH]1 this time
1.74

CS(=O)(=O)CCNCc1ccc(-c2ccc3ncnc(Nc4ccc(OCc5ccccc5)c(Cl)c4)c3c2)o1 ?
0.43

Queued: COc1cc2ncn(-c3cc(OCc4ccccc4C(F)(F)F)c(C(N)=O)s3)c2cc1OC
6.7

Next entry: Nc1nc(-c2ccccn2)c(-c2ccc3ncccc3n2)s1
-0.41

// same read-out, input: CS(=O)(=O)CCNCc1ccc(-c2ccc3ncnc(Nc4ccc(OCc5cccc(F)c5)c(C(F)(F)F)c4)c3c2)o1
-0.9

Now the same for CNC(=O)c1cncc(/C=C/c2c(Cl)cccc2Cl)c1
4.16

Would you mind doing Cc1nn(C)c2cc(N(C)c3ccnc(Nc4cccc(S(N)(=O)=O)c4)n3)ccc12 as well?
1.45

----------
# tested.on: cAMP-dependent protein kinase catalytic subunit alpha (Homo sapiens) (UniProt P17612)
# measurement.setup: at 1 µM
property: inhibition (%)
Answer in %, number only, no unit symbol.

[
  {
    "compound": "O=C1NC(=O)C(c2ccc(Cl)cc2)=C1Nc1ccc(Cl)c(C(=O)O)c1",
    "unit": "%",
    "inhibition": -1.57
  },
  {
    "compound": "Cc1nnc(-c2ccc(C)c(-c3ccc(C(=O)Nc4cccc(C#N)c4)cc3)c2)o1",
    "unit": "%",
    "inhibition": 1.76
  },
  {
    "compound": "CN1CCC(C(=O)Nc2n[nH]c3nnc(-c4ccccc4)cc23)CC1",
    "unit": "%",
    "inhibition": 1.51
  },
  {
    "compound": "COc1cc(C)c(NC(=O)CN(C)C)cc1Nc1nc(Nc2cccc(F)c2C(N)=O)c2cc[nH]c2n1",
    "unit": "%",
    "inhibition": -0.43
  },
  {
    "compound": "CC1=C(C(=O)Nc2ccc3[nH]ncc3c2)C(c2ccc(F)cc2)NC(=O)N1 (stereo unspecified)",
    "unit": "%",
    "inhibition": 30.4
  },
  {
    "compound": "[O-][S+]1CCN(Cc2ccc(-c3ccc4ncnc(Nc5ccc(OCc6ccccc6)c(F)c5)c4c3)o2)CC1",
    "unit": "%",
    "inhibition": 0.53
  }
]

If you can, please state the reported inhibition value of NC(=O)c1ccc(-c2nc(-c3ccccn3)c(-c3ccc4c(c3)OCO4)[nH]2)cc1 .
2.8

Cn1cc(C=C2C(=O)Nc3cccnc32)c2ccccc21 , same question.
1.46

Let us now turn to Nc1ncnc2occ(-c3ccc(NC(=O)Nc4cc(C(F)(F)F)cc(C(F)(F)F)c4)cc3)c12
0.7

Could you do the same for NC(=O)c1cccc(Nc2nccc(Nc3cccc4[nH]ncc34)n2)c1 , please?
10.7

Could you do the same for CCn1c(-c2nonc2N)nc2ccncc21 , please?
1.02

----------
# tested.on: Ribosomal protein S6 kinase alpha-4 (Homo sapiens)
# measurement.setup: at 1 µM
Parameter: inhibition. Scope: all listed entries.
Record the value in %, omitting the unit from your answer.

Using the record for CS(=O)(=O)Nc1ccc(N/C=C2\C(=O)Nc3ccccc32)cc1 , report its inhibition.
7.44

Similarly, CN1CCC(C(=O)Nc2n[nH]c3nnc(-c4ccccc4)cc23)CC1 ?
4.31

Again, but for CC(C)=Cc1cccc2c1/C(=N/Nc1ccc(S(N)(=O)=O)cc1)C(=O)N2
15.9

Try the compound COC(=O)Nc1nc2cc(Oc3ccc(NC(=O)Nc4cccc(C(=O)O)c4)cc3)ccc2[nH]1
2.84

And what about the compound COc1cc2ncn(-c3cc(OCc4ccccc4Cl)c(C(N)=O)s3)c2cc1OC ?
3.02

----------
Each entry below carries its reported inhibition.
# tested.on: Inhibitor of nuclear factor kappa-B kinase subunit epsilon (Homo sapiens) (UniProt Q14164)
# Sequence (Q14164 whole entry): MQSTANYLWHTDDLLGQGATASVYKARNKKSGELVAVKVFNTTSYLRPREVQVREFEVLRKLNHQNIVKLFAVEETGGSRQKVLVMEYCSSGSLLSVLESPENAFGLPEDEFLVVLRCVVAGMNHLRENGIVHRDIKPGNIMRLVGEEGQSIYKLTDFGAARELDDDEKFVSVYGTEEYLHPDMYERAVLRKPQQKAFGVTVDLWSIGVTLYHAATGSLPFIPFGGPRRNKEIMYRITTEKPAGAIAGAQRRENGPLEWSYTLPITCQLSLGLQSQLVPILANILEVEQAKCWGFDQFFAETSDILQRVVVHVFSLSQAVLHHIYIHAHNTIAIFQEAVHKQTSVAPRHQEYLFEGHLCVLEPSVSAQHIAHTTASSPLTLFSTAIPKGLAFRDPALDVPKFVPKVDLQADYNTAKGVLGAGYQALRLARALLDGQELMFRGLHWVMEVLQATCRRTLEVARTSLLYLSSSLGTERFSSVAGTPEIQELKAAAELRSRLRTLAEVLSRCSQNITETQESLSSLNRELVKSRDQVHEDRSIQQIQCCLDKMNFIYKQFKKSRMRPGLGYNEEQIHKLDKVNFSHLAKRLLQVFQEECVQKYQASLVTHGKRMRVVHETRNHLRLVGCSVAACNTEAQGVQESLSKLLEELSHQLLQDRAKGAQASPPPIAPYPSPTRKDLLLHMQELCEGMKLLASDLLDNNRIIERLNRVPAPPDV
# measurement.setup: at 1 µM
Numbers only; they are read as %.

[
  {
    "query.smiles": "COc1cc(C)c(NC(=O)CN(C)C)cc1Nc1nc(Nc2cccc(F)c2C(N)=O)c2cc[nH]c2n1",
    "inhibition / %": 5.68
  },
  {
    "query.smiles": "Cc1ccc(C(=O)NC2CCCCC2)cc1-c1ccc(C(=O)NCC2CC2)cc1",
    "inhibition / %": 0.57
  },
  {
    "query.smiles": "CC(=O)Nc1cccc(C#Cc2cncnc2Nc2ccc(OCc3cccc(F)c3)c(Cl)c2)n1",
    "inhibition / %": 1.53
  },
  {
    "query.smiles": "O=C1NC(=O)C(c2cccc(Cl)c2)=C1Nc1ccc(O)c(Cl)c1",
    "inhibition / %": 0.33
  }
]

Which inhibition reading was recorded for the molecule Cc1cc(O)cc(C)c1/C=C/c1cncc(-c2nn[nH]n2)c1 ?
4.14

----------
# tested.on: Calcium/calmodulin-dependent protein kinase type 1D (Homo sapiens)
# measurement.setup: at 1 µM
Reported inhibition values follow for various compounds
Response body: numeric value in %, unit text excluded.

Example entries begin here.
[
  {
    "compound": "COc1cc2ncn(-c3cc(OCc4ccccc4C(F)(F)F)c(C(N)=O)s3)c2cc1OC",
    "recorded.measurement": -1.9
  },
  {
    "compound": "NS(=O)(=O)c1ccc(N/N=C2\\C(=O)Nc3ccc(C(=O)NCCc4c[nH]cn4)cc32)cc1",
    "recorded.measurement": 3.93
  },
  {
    "compound": "CCN1CCC(CC(=O)Nc2n[nH]c3nc(-c4cccs4)c(Br)cc23)CC1",
    "recorded.measurement": 1.72
  },
  {
    "compound": "CS(=O)(=O)CCNCc1ccc(-c2ccc3ncnc(Nc4ccc(OCc5ccccc5)c(Cl)c4)c3c2)o1",
    "recorded.measurement": 1.29
  },
  {
    "compound": "CS(=O)(=O)CCN(CC#N)Cc1ccc(-c2ccc3ncnc(Nc4ccc(OCc5cccc(F)c5)c(Cl)c4)c3c2)o1",
    "recorded.measurement": -1.27
  },
  {
    "compound": "COc1ccc(COc2ccc(Cc3cnc(N)nc3N)cc2OC)cc1",
    "recorded.measurement": 5.51
  },
  {
    "compound": "CCn1c(-c2nonc2N)nc2cncc(C(=O)N3CCNCC3)c21",
    "recorded.measurement": 2.87
  },
  {
    "compound": "COC(=O)Nc1nc2cc(Oc3cccc(NC(=O)Nc4cc(C(F)(F)F)ccc4F)c3)ccc2[nH]1",
    "recorded.measurement": 4.96
  },
  {
    "compound": "CC(C)=Cc1cccc2c1/C(=N/Nc1ccc(S(N)(=O)=O)cc1)C(=O)N2",
    "recorded.measurement": 1.3
  },
  {
    "compound": "COc1cc2ncn(-c3cc(OCc4ccccc4Cl)c(C(N)=O)s3)c2cc1OC",
    "recorded.measurement": 3.64
  }
]

// inhibition lookup, key: CC1=C(C(=O)Nc2ccc3[nH]ncc3c2)C(c2ccc(Cl)c(Cl)c2)CC(=O)N1 (stereo unspecified)
1.37

Also, COc1ccccc1Nc1ncc(-c2ccccc2)o1 please.
-0.14

Same read-out for N#Cc1c(NC(=O)c2cccc3ccccc23)sc2c1CCCC2 ?
2.77

Entry to check: COc1cc2c(cc1Nc1nc(N3CCc4ccccc43)c3cc[nH]c3n1)N(C(=O)CN(C)C)CC2
2.58

Now this one: Nc1ncnc2occ(-c3ccc(NC(=O)Nc4cc(C(F)(F)F)cc(C(F)(F)F)c4)cc3)c12
4.38

Do the same for CC(=O)Nc1cccc(C#Cc2cncnc2Nc2ccc(OCc3cccc(F)c3)c(Cl)c2)n1 please
0.25

Now this one: Cn1cc(C=C2C(=O)Nc3cccnc32)c2ccccc21
2.41

Please answer likewise for Cc1cccc(-c2n[nH]cc2-c2ccc3ncccc3n2)n1
1.08

Continue with Nc1ncnc2occ(-c3ccc(NC(=O)Nc4cccc(C(F)(F)F)c4)cc3)c12
7.97

Try the compound CS(=O)(=O)CCNCc1nc(-c2ccc3ncnc(Nc4ccc(F)c(Cl)c4)c3c2)cs1
1.23
